B1: library; a variant is named by its letters at N, in order (parent)
chain: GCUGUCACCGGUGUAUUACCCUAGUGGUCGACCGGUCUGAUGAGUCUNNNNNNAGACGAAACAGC

# Variants of: B1
# assay method text: FACS-Seq fitted mean relative fluorescence mCherry/BFP without ligand (log10 relative fluorescence); ligand: hypoxanthine (xanthine aptamer); higher = higher reporter protein expression
# protocol conditions: HEK293T, ligand present: no
test readout: FACS-Seq fitted mean (log10)

- AGGAUG: 0.132
- GAGUGC: 0.0552
- UUCAAG: 0.352
- AUAUAC: 0.568
- AGGUGA: 0.38
- GCACAA: 0.663
- AUUAUU: 0.558
- GAACUU: 0.731
- GAUAAG: -0.0234
- ACGUAG: -0.209
- GUCAGA: -0.213
- UAGUAG: 0.218
- UAUAGU: 0.0206
- GCUUCG: 0.0523
- GCAUUG: 0.25
- AAGCUG: 0.17
- UUUAGC: 0.28
- AUUACG: 0.368
- AUUCAU: 0.124
- GAAUGU: 0.27
- AAGGAU: 0.678
- ACGAUA: 0.143
- AAUCAU: 0.507
- UUCAAU: -0.589
- GCUUGA: 0.378
- GAGACU: -0.451
- CAUACG: 0.394
- GCCAAA: 0.458
- GCGGUG: 0.212
- AGCAUG: 0.201
- AACGAC: 0.305
- AGCAUA: 0.318
- ACGACG: 0.162
